Biological target: aryl hydrocarbon receptor (AhR) (Mus musculus (Mouse), UniProt P30561)
Sequence (P30561 10-805): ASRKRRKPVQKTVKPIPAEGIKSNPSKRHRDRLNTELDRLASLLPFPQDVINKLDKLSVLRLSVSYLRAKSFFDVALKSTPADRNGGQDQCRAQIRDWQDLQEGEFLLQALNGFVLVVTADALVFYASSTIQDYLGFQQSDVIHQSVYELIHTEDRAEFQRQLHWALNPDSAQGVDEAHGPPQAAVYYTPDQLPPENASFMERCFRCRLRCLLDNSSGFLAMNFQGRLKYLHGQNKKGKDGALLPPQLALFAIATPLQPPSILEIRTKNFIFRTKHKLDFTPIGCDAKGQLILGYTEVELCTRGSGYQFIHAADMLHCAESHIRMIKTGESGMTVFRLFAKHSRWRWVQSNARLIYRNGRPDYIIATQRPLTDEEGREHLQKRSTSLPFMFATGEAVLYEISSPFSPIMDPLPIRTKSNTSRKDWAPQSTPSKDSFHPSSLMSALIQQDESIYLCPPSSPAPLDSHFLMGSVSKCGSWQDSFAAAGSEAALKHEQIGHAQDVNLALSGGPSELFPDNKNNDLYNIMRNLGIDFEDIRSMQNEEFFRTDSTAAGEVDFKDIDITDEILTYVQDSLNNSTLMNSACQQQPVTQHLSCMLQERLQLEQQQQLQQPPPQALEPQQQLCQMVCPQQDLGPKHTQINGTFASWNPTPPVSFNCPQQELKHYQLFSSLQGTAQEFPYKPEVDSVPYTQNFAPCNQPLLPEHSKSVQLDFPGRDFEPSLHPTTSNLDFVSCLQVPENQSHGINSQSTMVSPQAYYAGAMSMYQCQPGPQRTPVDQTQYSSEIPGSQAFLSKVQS
Sequence (P53762 whole entry partner): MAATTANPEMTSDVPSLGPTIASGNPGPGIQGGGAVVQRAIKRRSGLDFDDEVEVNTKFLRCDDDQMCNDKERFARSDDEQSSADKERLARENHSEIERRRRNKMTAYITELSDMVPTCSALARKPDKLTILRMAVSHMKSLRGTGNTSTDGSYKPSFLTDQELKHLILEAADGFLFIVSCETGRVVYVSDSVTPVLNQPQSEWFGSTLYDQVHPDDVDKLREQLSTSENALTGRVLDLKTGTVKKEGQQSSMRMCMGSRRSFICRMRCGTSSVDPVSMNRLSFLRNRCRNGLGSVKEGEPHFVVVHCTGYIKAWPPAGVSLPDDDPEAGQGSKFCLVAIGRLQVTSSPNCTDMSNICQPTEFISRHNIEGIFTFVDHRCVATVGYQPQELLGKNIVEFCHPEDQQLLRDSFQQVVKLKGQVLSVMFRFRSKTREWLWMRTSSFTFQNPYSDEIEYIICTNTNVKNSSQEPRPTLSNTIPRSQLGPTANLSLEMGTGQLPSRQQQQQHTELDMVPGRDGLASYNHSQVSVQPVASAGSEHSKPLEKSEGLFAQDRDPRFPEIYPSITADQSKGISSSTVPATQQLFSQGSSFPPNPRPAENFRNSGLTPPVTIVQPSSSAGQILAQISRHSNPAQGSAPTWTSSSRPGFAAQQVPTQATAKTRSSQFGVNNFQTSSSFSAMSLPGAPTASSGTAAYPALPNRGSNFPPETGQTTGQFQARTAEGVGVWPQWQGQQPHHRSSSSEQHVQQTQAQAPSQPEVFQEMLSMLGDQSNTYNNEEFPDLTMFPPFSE
Test: AhR ligand screening: AhRE-luciferase reporter in transfected Hepa1 cells
Assay type: cell-based
Settings: fold change of luciferase expression at 100 nM test compound relative to vehicle (0.1% DMSO)
The label is Criterion met for Fold @ 100 nM below 2 fold and Criterion not met for Fold @ 100 nM equal to or exceeding 2 fold.

(Q) Hello, is Fold @ 100 nM of the following compound strictly smaller than 2 fold? COc1ccc(-c2nc3ccc(Cl)cc3n2C(=O)c2ccccc2)cc1
(A) Criterion met

(Q) State whether 2 fold exceeds Fold @ 100 nM recorded for O=C(c1ccc(F)c(F)c1)n1c(-c2c3ccccc3cc3ccccc23)nc2ccc(Cl)cc21 .
(A) Criterion met

(Q) Given O=C(c1ccc(F)c(F)c1)n1c(-c2cccc3ccccc23)nc2cc(F)ccc21 , is recorded Fold @ 100 nM strictly lower than 2 fold?
(A) Criterion not met

(Q) In the record for O=C(c1ccc(OC(F)(F)F)cc1)n1c(-c2cccc3ccccc23)nc2cc(Cl)ccc21 , is Fold @ 100 nM less than 2 fold?
(A) Criterion not met

(Q) Please state whether Fold @ 100 nM is below 2 fold for O=c1c2cccc3cccc(c32)c2nc3ccc(Cl)cc3n12
(A) Criterion not met

(Q) Is 2 fold strictly greater than the compound's reported Fold @ 100 nM? compound: Cn1cc(C(=O)c2cccc3ccccc23)c2cc(Cl)ccc21
(A) Criterion met

(Q) Would you kindly verify if Fold @ 100 nM of Cc1ccc(C(=O)c2c[nH]c3ccc(Cl)cc23)cc1 is strictly less than 2 fold?
(A) Criterion met

(Q) Record COC(=O)c1ccc2nc(-c3cccc4ccccc34)n(C(=O)c3ccc(F)c(F)c3)c2c1 : is its Fold @ 100 nM strictly below 2 fold?
(A) Criterion met

----------
Would you mind telling me the reported Fold relative to benchmark @ 100 nM of each entry?
Biological target: aryl hydrocarbon receptor (AhR) (Mus musculus (Mouse))
Assay: AhR ligand screening: AhRE-luciferase reporter in transfected Hepa1 cells
Assay type: cell-based
Conditions: luciferase expression at 100 nM test compound relative to 100 nM benchmark compound 11-cl-BBQ

Sample O=c1c2cccc3cccc(c32)c2nc3ccc(Cl)cc3n12 ; Fold relative to benchmark @ 100 nM observed: 0.69 fold

Form: molecule = O=C(c1ccc(F)c(F)c1)n1c(-c2cccc(-c3ccccc3)c2)nc2ccc(Cl)cc21 ; Fold relative to benchmark @ 100 nM = 0.04 fold

Summary for this molecule, O=C(c1ccc(Cl)cc1Cl)c1c[nH]c2ccc(Cl)cc12 : Fold relative to benchmark @ 100 nM is 0.04 fold

Please fill in: Fold relative to benchmark @ 100 nM reported for O=C(c1ccc(SC(F)(F)F)cc1)c1c[nH]c2ccc(Cl)cc12 = 0.04 fold

Lab book: Fold relative to benchmark @ 100 nM of Cc1cccc(-c2nc3cc(Cl)ccc3n2C(=O)c2ccc(F)c(F)c2)c1Cl noted as 0.04 fold

Per the record, O=C(c1ccc(F)c(F)c1)n1c(-c2cccc3c2CCCC3)nc2ccc(Cl)cc21 has Fold relative to benchmark @ 100 nM of 0.04 fold

----------
So I've got a bunch of compounds here, and I need their Fold @ 10 uM values.
Biological target: aryl hydrocarbon receptor (AhR) (Mus musculus (Mouse), UniProt P30561)
Experiment: AhR ligand screening: AhRE-luciferase reporter in transfected Hepa1 cells
Format: cell-based
Settings: fold change of luciferase expression at 10 uM test compound relative to vehicle (0.1% DMSO)
Description: The AhR is a ligand-activated transcription factor that dimerizes with ARNT to regulate gene expression, and genes that are regulated by AhR ligands have AhR response elements (AhRE) in their promotor regions. Briefly, Hepa1 cells were transfected with a reporter construct consisting of AhRE linked to luciferase. […] Data were expressed as fold induction of luciferase relative to vehicle (0.1% DMSO) treated cells.
Provide only the numeric value, understood in fold.

Fold @ 10 uM for Fc1ccc(Cn2c(-c3cccc4ccccc34)nc3ccc(Cl)cc32)cc1F [Compound 888] is 9

// O=C(c1ccc2nc(-c3cccc4ccccc34)n(S(=O)(=O)c3cccc(F)c3)c2c1)N1CCCCC1 [Compound 1369] : Fold @ 10 uM value = 2

Just so you know, measured Fold @ 10 uM for O=C(c1ccccc1)n1c(-c2cccc3ccccc23)nc2ccc(Cl)cc21 [Compound 495] came out at 59

The reported value for O=C(c1ccc2nc(-c3cccc4ccccc34)n(S(=O)(=O)c3ccc(Cl)cc3)c2c1)N1CCCCC1 [Compound 1367] in terms of Fold @ 10 uM is 3

Per the record, COc1ccc(C(=O)n2c(-c3cc4ccccc4s3)nc3ccc(Cl)cc32)cc1 [Compound 591] has Fold @ 10 uM of 38
